Test system: HepG2.2.15 cells
assay.info: Cytotoxicity determination in HepG2.2.15 cells (CCK-8 cell viability)
Assay type: cell-based
run.parameters: 6 days treatment, CCK-8 assay, highest concentration 100 uM
assay.endpoint: CC50 (µM)
Answers are plain numbers, in µM.

Given the compound COC(=O)C1=C(CN2CC(F)(F)[C@H]3[C@@H]2CCN3C[C@@H](C)C(=O)O)NC(c2nccs2)=N[C@H]1c1cccc(F)c1C (single isomer, unassigned) [Compound 131B] and test system HepG2.2.15 cells, the measured CC50 is 65.6

----------
Please respond with reported pEC50 for every item in the list.
Test system: HBV
assay.info: Anti-HBV activity in HepG2.2.15 cells (HBV DNA in culture medium by qPCR)
Format: cell-based
run.parameters: Hepatitis B virus, HepG2.2.15, 144 h, HepG2.2.15 cells, 6 days treatment, HBV DNA in culture medium quantified by real-time PCR; read-out: EC50
Answers are plain numbers, as −log10 of the molar value.

# example entries with known answers
* CCOC(=O)C1=C(CN2CC(F)(F)[C@@H]3CN(CC(C)(C)C(=O)O)C[C@@H]32)NC(c2nccs2)=N[C@H]1c1cccc(F)c1Cl (single isomer, unassigned) [Compound 22B] | 8.05
* CCOC(=O)C1=C(CN2CC(F)(F)[C@H]3[C@@H]2CN(C(C)=O)N3CCC(C)(C)C(=O)O)NC(c2nccs2)=N[C@@H]1c1ccc(F)c(F)c1C (single isomer, unassigned) [Compound 80B] | 8.10
* CCOC(=O)C1=C(CN2CC(F)(F)[C@H]3[C@@H]2CCN3C(=O)[C@H]2CC[C@H](C(=O)O)CC2)NC(c2nccs2)=N[C@H]1c1cccc(F)c1C (single isomer, unassigned) | 7.09

Please look at the items below and tell me pEC50 for each one, in order.
1. CCOC(=O)C1=C(CN2C[C@H](F)[C@H]3[C@@H]2CCN3CCC(C)(C)C(=O)O)NC(c2nccs2)=N[C@H]1c1cccc(F)c1C (single isomer, unassigned)
2. CCOC(=O)C1=C(CN2CC(F)(F)[C@H]3[C@@H]2CCN3C[C@H]2C[C@@H](C(=O)O)C2)NC(c2nccs2)=N[C@H]1c1cccc(F)c1C (single isomer, unassigned) [Compound 143B]

Solution:
[7.26, 8.34]
